Measured pKd accompanies every entry in the list below.
Target: T1, human LAG3 (construct not stated) (human, UniProt P18627 23-450, limits assumed)
T1 construct: also called human LAG3 protein; antigen
T1 sequence (looked up): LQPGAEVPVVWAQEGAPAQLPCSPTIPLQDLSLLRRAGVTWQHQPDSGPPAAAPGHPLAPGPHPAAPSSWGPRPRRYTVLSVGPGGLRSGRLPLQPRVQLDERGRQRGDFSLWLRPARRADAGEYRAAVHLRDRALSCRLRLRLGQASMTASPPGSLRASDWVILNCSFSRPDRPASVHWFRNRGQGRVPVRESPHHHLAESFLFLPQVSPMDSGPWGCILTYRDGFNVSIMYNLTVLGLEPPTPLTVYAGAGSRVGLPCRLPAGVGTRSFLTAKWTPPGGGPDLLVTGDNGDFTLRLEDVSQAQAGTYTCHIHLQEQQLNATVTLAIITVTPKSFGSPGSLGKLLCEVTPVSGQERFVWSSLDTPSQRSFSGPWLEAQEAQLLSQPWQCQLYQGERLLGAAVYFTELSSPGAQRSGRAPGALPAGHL
Assay: BLI Octet Red 96, full kinetics, antigen 50-3.125 nM
Just so you know, pKd here is -log10 of the concentration in molar units; reply with that number alone.

Use these answered entries as a reference point.
147H-7 (antibody, V domains shown, Common light chain; human gamma 1 / kappa constant domains) VH: QVQLVQSGAEVKKPGASVKVSCKASGYTFTNYWLGWIKQAPGQGLEWIGDIYPGGDYINYNEKFKGKATLTADTSISTAYMELSRLRSDDTAVYFCARPNLPGDYWGQGTTVTVSS VL: DIVMTQSPLSLPVTPGEPASISCRSSKSLLHSNGITYLYWYLQKPGQSPQLLIYQVSNLASGVPDRFSGSGSGTDFTLKISRVEAEDVGVYYCAQNLELPWTFGGGTKVEIK = 7.58
147H chimeric antibody (antibody, V domains shown) VH: QVQLQQSGSELVRPGTSVKISCKASGYTFTNYWLGWIKQRPGHGLEWIGDIYPGGDYINYNEKFKGKATLSADTSSSTAYMQLSSLTSEDSAVYFCARPNLPGDYWGQGTSVTVSS VL: DIVMTQAAFSNPVTLGTSASISCRSSKSLLHSNGITYLYWYLQKPGQSPQLLIYQVSNLASGVPGRFSGSGSGTDFTLRISRVEAEDVGVYYCAQNLELPWTFGGGTKLEIK = 7.57
147H-13 (antibody, V domains shown, Common light chain; human gamma 1 / kappa constant domains; also called 147H4-13) VH: EVQLVQSGAEVKKPGASVKVSCKASGYTFTNYWLGWIKQAPGQGLEWIGDIYPGGDYINYNEKFKGKATLTADTSISTAYMELSRLRSDDTAVYYCARPNLPGDYWGQGTTVTVSS VL: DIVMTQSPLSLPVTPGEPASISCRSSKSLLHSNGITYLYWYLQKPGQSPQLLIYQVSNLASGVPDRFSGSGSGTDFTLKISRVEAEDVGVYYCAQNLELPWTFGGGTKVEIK = 7.74
147H-14 (antibody, V domains shown, Common light chain; human gamma 1 / kappa constant domains) VH: EVQLVQSGAEVKKPGASVKVSCKASGYTFTNYWLGWIKQAPGQGLEWIGDIYPGGDYINYNEKFKGKATLTADTSISTAYMELSRLRSDDTAVYFCARPNLPGDYWGQGTTVTVSS VL: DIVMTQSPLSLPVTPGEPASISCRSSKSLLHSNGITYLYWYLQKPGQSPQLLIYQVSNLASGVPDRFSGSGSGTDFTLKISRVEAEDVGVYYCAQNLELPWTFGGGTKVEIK = 7.68

Read the next record carefully.
The binder 147H-6 (antibody, V domains shown, Common light chain; human gamma 1 / kappa constant domains) VH: QVQLVQSGAEVKKPGASVKVSCKASGYTFTNYWLGWIKQAPGQGLEWIGDIYPGGDYINYNEKFKGKATLTADTSISTAYMELSRLRSDDTAVYYCARPNLPGDYWGQGTTVTVSS VL: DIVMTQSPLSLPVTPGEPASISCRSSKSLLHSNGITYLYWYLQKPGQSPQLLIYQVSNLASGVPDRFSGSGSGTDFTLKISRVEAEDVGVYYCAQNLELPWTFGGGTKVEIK showed pKd equal to 7.61

FYI, the data here is from patent US20220363763A1.
